# testedSystem: Mouse IgG1 Fc fused SARS-CoV-2 RBD (Sino Biological) (SARS-CoV-2; mouse, UniProt P0DTC2 330-518)
# experimentalProtocol: ELISA on coated SARS-CoV-2 RBD-muFc, anti-VHH-HRP, OD450 [upper graph]
measuredAttribute: EC50 (read off the curve)

Before answering, review these 2 worked examples.
VHH3.36 (VHH) VHH: QVQLQESGGGLVQAGDSLRLSCVVSGGTFSSYAMGWFRQAPGKERELVAAINWGGISVYYADSVKGRFTISRDNAENTVYLQMNSLKPEDTAVYYCAADPKGWSEWDMEYWGKGTQVTVSS; ~0.05 µg/mL
VHH3.17 (VHH) VHH: QVQLQESGGGLVEAGGSLTLSCAASGRAFGDGAVGWFRQGPGRPREFVATVSWNGGGTYFAESVRGRFTISRDNAKNTVYLQMNNLKPEDTAVYYCALAGEGTVVSEWDYDYEYWGQGTQVTVSS; ~0.05 µg/mL

# evaluate next
Tell me EC50 (read off the curve) reported for VHH3.35 (VHH) VHH: QVQLQESGGGLVQAGGSLTLSCEVSGRTNDNYGVGWFRQVPGAERELVAAIRWSSISRYYKDSVKGRFTISRDNAKNTVYLQMDMLKAEDTAVYYCAADPAGWSEFGMEYWGKGTQVTVSS
~0.04 µg/mL
